System: SK-MEL-5 melanoma
Assay: NCI-60 one-dose screen, 48 h (100 = growth as untreated, 0 = no growth, -100 = all killed)
Conditions: 10 µM unless noted
This is part of a sample that, as a whole, favours compounds with a hit. Of some 83,000 tested, about 20% had one in any assay.
property_measured: growth (%)
Numbers only, in %.

Study these solved cases before continuing.
{"smiles_entry": "Cc1c(NC(=O)OC[C@@H]2COCCN2)cn2ncnc(Nc3ccc4c(cnn4Cc4cccc(F)c4)c3)c12", "growth (%)": -46.4}
{"smiles_entry": "CCCCCCCCCNCCCCCCCCC", "growth (%)": 54.1}
{"smiles_entry": "O=C(NOCCO)c1cc(CN2OCCCC2=O)c(F)c(F)c1Nc1ccc(I)cc1F", "growth (%)": 45.7}
{"smiles_entry": "COc1cc(NCCN(CC(C)C)CC(C)C)c2ncc(C)cc2c1", "growth (%)": 23.6}

Shift focus to the following entry.
Find the recorded growth belonging to COc1cc2nccc(Oc3ccc(NC(=O)Nc4cc(C)on4)c(Cl)c3)c2cc1OC and report it.
-19.7

* * *

System: OVCAR-5 ovarian
Assay: NCI-60 one-dose screen, 48 h (100 = growth as untreated, 0 = no growth, -100 = all killed)
Conditions: 10 µM unless noted
Compounds without any hit were thinned out: in the full panel of roughly 83,000, 20% have a hit.
property_measured: growth (%)
One number for each entry, in %.

Examples from the recorded data:
{"molecule": "Cc1cc(N(CCNc2ccnc3cc(Cl)ccc23)Cc2ccc3c(c2)OCO3)nc(N2CCCC2)n1", "target_of_assay": "OVCAR-5 ovarian", "u": "%", "growth": 20.6}
{"molecule": "Cc1cc(NCC(=O)Nc2ccc(-c3nc4ccccc4s3)cc2)no1", "target_of_assay": "OVCAR-5 ovarian", "u": "%", "growth": 119}
{"molecule": "CC(C)(C)c1cnc(CSc2cnc(NC(=O)C3CCNCC3)s2)o1", "target_of_assay": "OVCAR-5 ovarian", "u": "%", "growth": 14.9}
{"molecule": "C=CC(=O)Nc1cc(Nc2nccc(-c3cn(C)c4ccccc34)n2)c(OC)cc1N(C)CCN(C)C", "target_of_assay": "OVCAR-5 ovarian", "u": "%", "growth": -56.5}
{"molecule": "COc1ccc(-c2nocc2-c2cc(OC)c(OC)c(OC)c2)cc1", "target_of_assay": "OVCAR-5 ovarian", "u": "%", "growth": 51}
{"molecule": "CC(CCCC(=O)O)c1ccoc1 (stereo unspecified)", "target_of_assay": "OVCAR-5 ovarian", "u": "%", "growth": 105}
{"molecule": "Cn1ccnc1C(=O)/C=C/c1ccc(CC(=O)Nc2ccc(C(F)(F)F)cc2)cc1", "target_of_assay": "OVCAR-5 ovarian", "u": "%", "growth": 22.9}
{"molecule": "Cn1ccnc1C(=O)/C=C/c1ccc(CC(=O)Nc2ccc(S(F)(F)(F)(F)F)cc2)cc1", "target_of_assay": "OVCAR-5 ovarian", "u": "%", "growth": -38.1}

# batch size: 2; output growth per entry
1. O=C1C=CC2(NN=C(c3ccccc3)N2c2ccccc2)c2cccc(O)c21 (stereo unspecified)
2. CC(C)NC[C@@H](C(=O)N1CCN(c2ncnc3c2[C@H](C)C[C@H]3O)CC1)c1ccc(Cl)cc1

[39.9, 54.4]

* * *

Test system: OVCAR-4 ovarian
Assay: NCI-60 one-dose screen, 48 h (100 = growth as untreated, 0 = no growth, -100 = all killed)
Conditions: 10 µM unless noted
This is part of a sample that, as a whole, favours compounds with a hit. Of some 83,000 tested, about 20% had one in any assay.
Please use Fulfilled for growth under 60% and Not fulfilled for everything else, ties included.

{"compound": "O=C(Cn1cncn1)Nc1ccc(-c2nc3ccccc3s2)cc1", "group_label": "Not fulfilled"}
{"compound": "Cc1cccc(C)c1N1C(c2ccccc2)=NNC12C=CC(=O)c1c(O)cccc12 (stereo unspecified)", "group_label": "Not fulfilled"}
{"compound": "Cc1ccc(F)c(NC(=O)Nc2ccc(-c3cccc4[nH]nc(N)c34)cc2)c1", "group_label": "Fulfilled"}
{"compound": "Cn1ncc(Cl)c1-c1cc(C(=O)N[C@H](CN)Cc2ccc(F)c(F)c2)oc1Cl", "group_label": "Fulfilled"}
{"compound": "CCOC(=O)C1=C(C)NC(=O)NC1c1cc(=O)oc2ccc(C)cc12 (stereo unspecified)", "group_label": "Not fulfilled"}
{"compound": "CCOc1cc2ncc(C#N)c(Nc3ccc(OCc4ccccn4)c(Cl)c3)c2cc1NC(=O)/C=C/CN(C)C", "group_label": "Fulfilled"}

Dear reviewer, please state whether O=C1CCC(=O)CC1 has growth strictly beneath 60%.
Not fulfilled

Hi there! Is growth for N#CC1(C#N)C(c2cccs2)NC(c2cccs2)C1(C#N)C#N (stereo unspecified) below 60%, do you know?
Not fulfilled

Please determine if COC(=O)C1=C(C(=O)OC)C23C=C(C)C1C2=C(C)C1(CC1)[C@@](C)(O)C3=O (stereo partly specified) is below 60% in terms of growth.
Fulfilled

* * *

Test system: ACHN renal
Test: NCI-60 one-dose screen, 48 h (100 = growth as untreated, 0 = no growth, -100 = all killed)
Settings: 10 µM unless noted
This is part of a sample that, as a whole, favours compounds with a hit. Of some 83,000 tested, about 20% had one in any assay.
Would you please tag the item class 1 when its growth is 40% or above, and class 0 when it is below?

Some entries whose results are on file:
{"compound": "CCN(CC)Cc1cc(Nc2cc(C(F)(F)F)c(C#N)c3nc4ccccc4n23)ccc1O", "group_label": "class 0"}
{"compound": "O=C(Cn1ccc2ccccc21)Nc1ccc(-c2nc3ccccc3s2)cc1", "group_label": "class 1"}
{"compound": "COc1ccc2c(CCCCC(c3ccccc3)c3ccccc3)c3[n+](cc2c1OC)CCc1cc2c(cc1-3)OCO2", "group_label": "class 0"}
{"compound": "CC(C)c1cc(CNc2nc(Nc3cc(C4CC4)[nH]n3)cc(N3CCN(C)CC3)n2)on1", "group_label": "class 0"}
{"compound": "CO[C@H]1C[C@@H]2CC[C@@H](C)[C@@](O)(O2)C(=O)C(=O)N2CCCC[C@H]2C(=O)O[C@H]([C@H](C)C[C@@H]2CC[C@@H](OC(=O)C(C)(CO)CO)[C@H](OC)C2)CC(=O)[C@H](C)/C=C(\\C)[C@@H](O)[C@@H](OC)C(=O)[C@H](C)C[C@H](C)\\C=C/C=C/C=C/1C", "group_label": "class 0"}
{"compound": "c1ccc2c(c1)CCN(NCCN1CCCC1)C2", "group_label": "class 1"}
{"compound": "C[C@H]1Oc2cc(cnc2N)-c2c(nn(C)c2C#N)CN(C)C(=O)c2ccc(F)cc21", "group_label": "class 1"}
{"compound": "CCN(CC)C(=O)C[N+](C)(C)CCOC(c1ccccc1)c1ccccc1", "group_label": "class 1"}
{"compound": "CC(N)C(Cc1ccccc1)c1ccc(Cl)cc1 (configuration not stated)", "group_label": "class 1"}
{"compound": "N#Cc1c(-c2ccc(C(F)(F)F)cc2)c(F)c(NCCC2CCC(O)C2)n2c1nc1ccccc12 (configuration not stated)", "group_label": "class 1"}

For this compound, is measured growth 40% or higher? COc1cc(C(=O)NNC(=O)c2ccc(NC(=O)CCl)cc2)cc(OC)c1OC
class 1

State whether the measured growth reaches 40%, counting equality as reaching it, for COc1cc2c(cc1OCCCCCN1CCN(c3ncnc4ccccc34)CC1)N=CC1CCCN1C2=O (configuration not stated)
class 0

* * *

Tested on: NCI/ADR-RES ovarian
Test: NCI-60 one-dose screen, 48 h (100 = growth as untreated, 0 = no growth, -100 = all killed)
Details: 10 µM unless noted
Compounds without any hit were thinned out: in the full panel of roughly 83,000, 20% have a hit. Activity calls are given as the source filed them. Rule for the calls: active = growth percent below 10; inactive = the rest.
property_measured: growth

{"molecule": "Clc1ccc(C(Cn2ccnc2)OCc2ccsc2Cl)c(Cl)c1 (stereo not given)", "result": "23.1% (inactive)"}

Lab note: each molecule below needs its growth filled in.
1. Ic1ccccc1-c1ccccc1
2. C=C1C(=O)O[C@H]2[C@H]1CC/C(C=Nc1c(N)cc(C(F)(F)F)cc1C(F)(F)F)=C\CC[C@@]1(C)O[C@@H]21
3. Cc1nc2cc(-c3nn(C(C)C)c4ncnc(N)c34)ccc2o1
4. O=C1CSC(c2c(F)cccc2Cl)N1NC(=O)C(O)(c1ccccc1)c1ccccc1 (stereo not given)

["110% (inactive)", "-23.1% (active)", "-22.5% (active)", "95.4% (inactive)"]

* * *

System: NCI-H460 lung
Assay: NCI-60 one-dose screen, 48 h (100 = growth as untreated, 0 = no growth, -100 = all killed)
Settings: 10 µM unless noted
The panel holds about 83,000 compounds, 20% with a hit somewhere; the sample as a whole holds those more often.
1 (yes) if growth is below 60%. 0 (no) if not; exact matches included in 0 (no).

// below: answered molecules
{"smiles_entry": "C1=C\\COCc2cc(ccc2OCCN2CCCC2)Nc2nccc(n2)-c2cccc(c2)COC/1", "group_label": "1 (yes)"}
{"smiles_entry": "CCN(CC)CCOc1ccc(/C(=C(\\C)c2ccc(Cl)cc2)c2ccc(Cl)cc2)cc1", "group_label": "1 (yes)"}
{"smiles_entry": "C#Cc1cccc(Nc2ncnc3cc4c(cc23)OCCOCCOCCO4)c1", "group_label": "0 (no)"}
{"smiles_entry": "Cc1ccc(N=C2CSc3nnc(-c4csc5c4CCCC5)n3N2)cc1", "group_label": "1 (yes)"}
{"smiles_entry": "CCCS(=O)(=O)Nc1ccc(F)c(C(=O)c2c[nH]c3ncc(-c4ccc(Cl)cc4)cc23)c1F", "group_label": "1 (yes)"}

Please look at the following molecule next.
Is 60% strictly greater than the molecule's reported growth? molecule: Nc1ccc(S(=O)(=O)O)c2cc(S(=O)(=O)O)cc(O)c12
0 (no)
